Target Or System: T1, gp130 on HepG2 B6 cells (UniProt P40189 23-918, limits assumed)
T1 sequence (looked up): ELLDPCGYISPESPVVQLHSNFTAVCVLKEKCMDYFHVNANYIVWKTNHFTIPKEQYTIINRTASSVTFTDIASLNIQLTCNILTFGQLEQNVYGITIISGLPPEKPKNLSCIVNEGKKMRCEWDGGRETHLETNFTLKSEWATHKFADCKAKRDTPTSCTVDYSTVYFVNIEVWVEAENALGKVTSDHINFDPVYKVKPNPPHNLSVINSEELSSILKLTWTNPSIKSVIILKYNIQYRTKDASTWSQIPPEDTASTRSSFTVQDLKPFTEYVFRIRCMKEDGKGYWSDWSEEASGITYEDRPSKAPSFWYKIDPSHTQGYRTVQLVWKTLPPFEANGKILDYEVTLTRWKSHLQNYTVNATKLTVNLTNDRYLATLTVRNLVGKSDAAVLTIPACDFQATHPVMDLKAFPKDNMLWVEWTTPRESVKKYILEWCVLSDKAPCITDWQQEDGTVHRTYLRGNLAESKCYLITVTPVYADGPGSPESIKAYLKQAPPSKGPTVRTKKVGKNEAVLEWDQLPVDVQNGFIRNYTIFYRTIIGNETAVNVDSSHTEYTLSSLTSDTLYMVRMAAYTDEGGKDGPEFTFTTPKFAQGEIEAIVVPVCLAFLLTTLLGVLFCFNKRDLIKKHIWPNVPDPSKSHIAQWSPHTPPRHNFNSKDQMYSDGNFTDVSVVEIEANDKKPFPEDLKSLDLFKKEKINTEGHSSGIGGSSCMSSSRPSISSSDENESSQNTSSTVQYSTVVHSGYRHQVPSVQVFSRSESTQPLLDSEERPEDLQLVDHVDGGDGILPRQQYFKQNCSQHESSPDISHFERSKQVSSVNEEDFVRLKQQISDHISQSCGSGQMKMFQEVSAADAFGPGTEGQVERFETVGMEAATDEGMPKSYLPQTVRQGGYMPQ
Assay Remarks: cell-based or functional assay
Quantity Measured: sPAP HepG2 B6 assay: Expt 1 EC50 (µg/mL)
Response body: numeric value in µg/mL, unit text excluded.

{"columns": ["Binder", "Quantity Measured", "Unit Symbol", "Observed Value"],
 "data": [
  ["OSM-GST mutant Y126A (ligand, not shown: a dimerising Fc or GST; large carriers; small tags and cut ends, Alanine mutant of m4; also called (24)Y126A; 24 Y126A) AAIGSCSKEYRVLLGQLQKQTDLMQDTSRLLDPYIRIQGLDVPKLREHCRERPGAFPSEETLRGLGRRGFLQTLNATLGCVLHRLADLEQRLPKAQDLERSGLNIEDLEKLQMARPNILGLRNNIACMAQLLDNSDTAEPTKAGRGASQPPTPTPASDAFQRKLEGCRFLHGYHRFMHSVGRVFSKWGESPNRSRR", "sPAP HepG2 B6 assay: Expt 1 EC50", "µg/mL", 0.093],
  ["OSM-GST mutant L17A (ligand, Alanine mutant of m4; also called (10)L17A; 10 L17A; not shown: Its linker is left out) AAIGSCSKEYRVLLGQAQKQTDLMQDTSRLLDPYIRIQGLDVPKLREHCRERPGAFPSEETLRGLGRRGFLQTLNATLGCVLHRLADLEQRLPKAQDLERSGLNIEDLEKLQMARPNILGLRNNIYCMAQLLDNSDTAEPTKAGRGASQPPTPTPASDAFQRKLEGCRFLHGYHRFMHSVGRVFSKWGESPNRSRR", "sPAP HepG2 B6 assay: Expt 1 EC50", "µg/mL", 0.0727]
]}

Here is the next item to consider.
Look up sPAP HepG2 B6 assay: Expt 1 EC50 for this binder: OSM-GST mutant R11A (ligand, not shown: a dimerising Fc or GST; large carriers; small tags and cut ends, Alanine mutant of m4; also called (5)R11A; 5 R11A) AAIGSCSKEYAVLLGQLQKQTDLMQDTSRLLDPYIRIQGLDVPKLREHCRERPGAFPSEETLRGLGRRGFLQTLNATLGCVLHRLADLEQRLPKAQDLERSGLNIEDLEKLQMARPNILGLRNNIYCMAQLLDNSDTAEPTKAGRGASQPPTPTPASDAFQRKLEGCRFLHGYHRFMHSVGRVFSKWGESPNRSRR
0.0286
